biological target: ACL (Homo sapiens (Human)); experiment: ACLY-MDH Coupled Assay
Sequence (P53396 whole entry, species assumed): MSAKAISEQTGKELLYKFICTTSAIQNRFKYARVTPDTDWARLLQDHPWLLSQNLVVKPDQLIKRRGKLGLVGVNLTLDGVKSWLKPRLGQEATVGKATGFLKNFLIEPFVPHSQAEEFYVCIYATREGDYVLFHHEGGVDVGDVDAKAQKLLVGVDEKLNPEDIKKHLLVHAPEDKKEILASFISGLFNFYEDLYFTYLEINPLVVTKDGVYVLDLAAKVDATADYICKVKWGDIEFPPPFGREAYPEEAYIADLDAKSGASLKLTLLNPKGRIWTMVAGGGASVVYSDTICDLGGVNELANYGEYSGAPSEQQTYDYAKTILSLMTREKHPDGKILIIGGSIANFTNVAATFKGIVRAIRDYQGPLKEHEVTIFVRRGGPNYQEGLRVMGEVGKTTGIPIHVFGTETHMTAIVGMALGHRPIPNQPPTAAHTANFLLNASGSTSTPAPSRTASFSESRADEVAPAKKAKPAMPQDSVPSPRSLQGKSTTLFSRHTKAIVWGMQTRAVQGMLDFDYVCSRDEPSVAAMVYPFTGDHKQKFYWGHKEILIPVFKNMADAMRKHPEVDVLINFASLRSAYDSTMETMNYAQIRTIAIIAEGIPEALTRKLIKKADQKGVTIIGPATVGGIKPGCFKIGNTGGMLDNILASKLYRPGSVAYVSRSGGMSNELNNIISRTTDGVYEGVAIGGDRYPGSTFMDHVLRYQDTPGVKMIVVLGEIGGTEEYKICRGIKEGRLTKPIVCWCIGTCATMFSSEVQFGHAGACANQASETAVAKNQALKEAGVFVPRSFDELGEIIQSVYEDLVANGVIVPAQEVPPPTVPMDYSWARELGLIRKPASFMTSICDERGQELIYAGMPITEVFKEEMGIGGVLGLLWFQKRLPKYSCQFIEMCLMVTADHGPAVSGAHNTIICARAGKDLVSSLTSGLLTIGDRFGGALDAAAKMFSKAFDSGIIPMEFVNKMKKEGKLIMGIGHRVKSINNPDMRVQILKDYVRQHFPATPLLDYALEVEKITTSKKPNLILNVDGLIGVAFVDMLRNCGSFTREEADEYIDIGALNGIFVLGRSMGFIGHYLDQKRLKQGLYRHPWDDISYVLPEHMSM
# Lookup of reported IC50 keyed by entry

Example entries begin here.
COc1ccc(-c2ccccc2)cc1NS(=O)(=O)c1cc(-c2nccn2C)cc(Cl)c1O: 50 to 500 nM
CC(C)n1c(NS(=O)(=O)c2cc(Cl)cc(Cl)c2O)c(-c2ccc(F)cc2)c2ccccc21: 500 to 30000 nM
CC(=O)NC1CN(C(=O)c2cc(Cl)c(O)c(S(=O)(=O)Nc3cc(-c4ccccc4)c(F)cc3F)c2)C1: 500 to 30000 nM
NC1CN(C(=O)c2cc(Cl)c(O)c(S(=O)(=O)Nc3cc(-c4ccccc4)c(F)cc3F)c2)C1: 50 to 500 nM
COc1ccc(-c2ccccc2)cc1NS(=O)(=O)c1cc(C(=O)O)cc(Cl)c1O: 500 to 30000 nM

Exam item: Assign IC50 to the following record: O=S(=O)(Nc1cc(-c2nn[nH]n2)ccc1F)c1cc(Cl)cc(Cl)c1O
Marked response: 500 to 30000 nM

Exam item: Name the recorded IC50 of the molecule listed here: Cc1cc(C)cc(S(=O)(=O)Nc2cc(-c3ccccc3)ccc2C(=O)O)c1
Marked response: 500 to 30000 nM

Exam item: Output IC50 of COC(=O)c1cc(Cl)c(OC)c(S(=O)(=O)Nc2cc(-c3ccccc3)ccc2F)c1
Marked response: 500 to 30000 nM
